All figures here come from ChEMBL document CHEMBL1275291.

What MIC was measured for each of the following?
- System: Aspergillus niger
- method.summary: Antimicrobial activity against Aspergillus niger MTCC 282 after 24 hrs by serial dilution method
- Format: functional
- condition.parameters: MTCC 282, 24 h
Numeric only. Scale: µg/mL

Check the records and state MIC for COc1ccc(C2C(C#N)=C(N)Oc3ccccc32)cc1 (configuration not stated) 1000

Check the records and state MIC for `COC1=CC(=O)C[C@@H](C)[C@]12Oc1c(Cl)c(OC)cc(OC)c1C2=O` 100

Check the records and state MIC for COc1ccc(C2c3ccc4cccnc4c3Oc3[nH]c(=O)nc(N)c32)cc1 (configuration not stated) 250

Check the records and state MIC for COc1ccc(C2C(C#N)=C(N)Oc3cc(O)ccc32)cc1 (configuration not stated) 500

Check the records and state MIC for COc1ccc(C2C(C#N)=C(N)Oc3c2ccc2ccccc32)cc1 (configuration not stated) 500

Check the records and state MIC for COc1ccc(C2C(C#N)=C(N)Oc3c2ccc2cccnc32)cc1 (configuration not stated) 500

Check the records and state MIC for COc1ccc(C2C(C#N)=C(N)Oc3ccc4ccccc4c32)cc1 (configuration not stated) 1000
